Reported Activity is given for each of the following compounds.
target.of.assay: Galectin-3 (Homo sapiens)
test: Inhibition of Galectin3
Express your answer in mM, writing the number without its unit.

| smiles.code | Activity [mM] |
| --- | --- |
| CC(=O)OC[C@H]1O[C@@H](Oc2ccc([N+](=O)[O-])cc2)[C@H](OC(C)=O)[C@@H](OC(C)=O)[C@H]1O | 10 |
| CC(=O)OC[C@H]1O[C@@H](Sc2ccc([N+](=O)[O-])cc2)[C@H](OC(C)=O)[C@@H](OC(C)=O)[C@@H]1O[C@@H]1O[C@H](CO)[C@H](O)[C@H](O)[C@H]1O | 0.313 |
| O=S(=O)(c1ccc2ccccc2c1)[C@@H]1O[C@H](CO)[C@@H](O[C@@H]2O[C@H](CO)[C@H](O)[C@H](O)[C@H]2O)[C@H](O)[C@H]1O | 0.313 |
| CC(=O)OC[C@H]1O[C@@H](Sc2ccc3ccccc3c2)[C@H](OC(C)=O)[C@@H](OC(C)=O)[C@H]1O | 5 |

# input for lookup
Specify Activity for `CC(=O)OC[C@H]1O[C@@H](Oc2ccc([N+](=O)[O-])cc2)[C@H](OC(C)=O)[C@@H](OC(C)=O)[C@@H]1O[C@@H]1O[C@H](CO)[C@H](O)[C@H](O)[C@H]1O` and stop.
0.625
